# Tested on: BALB/C mice
# protocol_notes: Maximum tolerated dose (MTD) / acute toxicity by single intravenous injection
# particulars: single intravenous injection, 150 mg/kg, 10 BALB/C mice per group
measurement_name: Mortality rate (%)
Reply with just the number (in %).

Consider the compound COCCOCC(=O)N[C@H](C)C(=O)N[C@H](C)C(=O)N[C@H](CC(N)=O)C(=O)Nc1ccc(COC(=O)OC(C(=O)OC2C[C@@]3(O)[C@@H](OC(=O)c4ccccc4)[C@H]4[C@](C)(C(=O)[C@H](O)C(=C2C)C3(C)C)[C@@H](O)CC2OC[C@]24OC(C)=O)[C@@H](NC(=O)OC(C)(C)C)c2ccccc2)cc1 (stereo partly shown) [Compound D1] and give its recorded Mortality rate (%). 0

====

# System: BALB/C mice
# protocol_notes: Maximum tolerated dose (MTD) / acute toxicity by single intravenous injection
# particulars: single intravenous injection, 125 mg/kg, 10 BALB/C mice per group
measurement_name: Mortality rate (%)
Reply with just the number (in %).

// solved cases for Mortality rate (%) follow
COCCOCC(=O)NCCCC[C@H](NC(=O)COCCOC)C(=O)N[C@H](C)C(=O)N[C@H](C)C(=O)N[C@H](CC(N)=O)C(=O)Nc1ccc(COC(=O)OC(C(=O)OC2C[C@@]3(O)[C@@H](OC(=O)c4ccccc4)[C@H]4[C@](C)(C(=O)[C@H](OC(C)=O)C(=C2C)C3(C)C)[C@@H](O)CC2OC[C@]24OC(C)=O)[C@@H](NC(=O)c2ccccc2)c2ccccc2)cc1 (stereo partly drawn) [Compound A1]
0
COCCOCCOCCOCCOCCOCC(=O)NCCCC[C@H](NC(=O)COCCOCCOCCOCCOCCOC)C(=O)N[C@H](C)C(=O)N[C@H](C)C(=O)N[C@H](CC(N)=O)C(=O)Nc1ccc(COC(=O)OC(C(=O)OC2C[C@@]3(O)[C@@H](OC(=O)c4ccccc4)[C@H]4[C@](C)(C(=O)[C@H](OC(C)=O)C(=C2C)C3(C)C)[C@@H](O)CC2OC[C@]24OC(C)=O)[C@@H](NC(=O)c2ccccc2)c2ccccc2)cc1 (stereo partly drawn) [Compound A2]
10

The record that follows has no Mortality rate (%) shown yet.
Consider the molecule COCCOCC(=O)NCCCC[C@H](NC(=O)COCCOC)C(=O)N[C@H](C)C(=O)N[C@H](C)C(=O)N[C@H](CC(N)=O)C(=O)Nc1ccc(COC(=O)OC(C(=O)OC2C[C@@]3(O)[C@@H](OC(=O)c4ccccc4)[C@H]4[C@](C)(C(=O)[C@H](O)C(=C2C)C3(C)C)[C@@H](O)CC2OC[C@]24OC(C)=O)[C@@H](NC(=O)OC(C)(C)C)c2ccccc2)cc1 (stereo partly drawn) [Compound B1] and give its recorded Mortality rate (%). 0

====

# Test system: BALB/C mice
# protocol_notes: Maximum tolerated dose (MTD) / acute toxicity by single intravenous injection
# particulars: BALB/C mice, intravenous injection, one time
measurement_name: MTD (maximum tolerated dose)

COCCOCC(=O)N[C@H](C)C(=O)N[C@H](C)C(=O)N[C@H](CC(N)=O)C(=O)Nc1ccc(COC(=O)OC(C(=O)OC2C[C@@]3(O)C(OC(=O)c4ccccc4)[C@@H]4C5(OC(C)=O)COC5C[C@H](O)[C@@]4(C)C(=O)[C@H](OC(C)=O)C(=C2C)C3(C)C)[C@@H](NC(=O)c2ccccc2)c2ccccc2)cc1 (stereo in doubt) [S1′]
about 90 mg/kg
COCCOCC(=O)NCCCC[C@H](NC(=O)COCCOC)C(=O)N[C@H](C)C(=O)N[C@H](C)C(=O)N[C@H](CC(N)=O)C(=O)Nc1ccc(COC(=O)OC(C(=O)OC2C[C@@]3(O)[C@@H](OC(=O)c4ccccc4)[C@H]4[C@](C)(C(=O)[C@H](OC(C)=O)C(=C2C)C3(C)C)[C@@H](O)CC2OC[C@]24OC(C)=O)[C@@H](NC(=O)c2ccccc2)c2ccccc2)cc1 (stereo partly drawn) [Compound A1]
about 90 mg/kg

====

// reported Mortality rate (%) for each item listed
# System: BALB/C mice
# protocol_notes: Maximum tolerated dose (MTD) / acute toxicity by single intravenous injection
# particulars: single intravenous injection, 125 mg/kg, 10 BALB/C mice per group
Reply with just the number (in %).

COCCOCC(=O)N[C@H](C)C(=O)N[C@H](C)C(=O)N[C@H](CC(N)=O)C(=O)Nc1ccc(COC(=O)OC(C(=O)OC2C[C@@]3(O)[C@@H](OC(=O)c4ccccc4)[C@H]4[C@](C)(C(=O)[C@H](O)C(=C2C)C3(C)C)[C@@H](O)CC2OC[C@]24OC(C)=O)[C@@H](NC(=O)OC(C)(C)C)c2ccccc2)cc1 (some centres unmarked) [Compound D1]
0

The record that follows has no Mortality rate (%) shown yet.
Retrieve Mortality rate (%) on BALB/C mice; query COCCOCCOCCOCCOCCOCCOCCOCCOCCOCCOCCOCC(=O)NCCCC[C@H](NC(=O)COCCOCCOCCOCCOCCOCCOCCOCCOCCOCCOCCOC)C(=O)N[C@H](C)C(=O)N[C@H](C)C(=O)N[C@H](CC(N)=O)C(=O)Nc1ccc(COC(=O)OC(C(=O)OC2C[C@@]3(O)[C@@H](OC(=O)c4ccccc4)[C@H]4[C@](C)(C(=O)[C@H](OC(C)=O)C(=C2C)C3(C)C)[C@@H](O)CC2OC[C@]24OC(C)=O)[C@@H](NC(=O)c2ccccc2)c2ccccc2)cc1 (some centres unmarked) 10

====

# Test system: BALB/C mice
# protocol_notes: Maximum tolerated dose (MTD) / acute toxicity by single intravenous injection
# particulars: single intravenous injection, 200 mg/kg, 10 BALB/C mice per group
measurement_name: Number of dead animal
Enter the number alone.

Consider the molecule COCCOCC(=O)NCCCC[C@H](NC(=O)COCCOC)C(=O)N[C@H](C)C(=O)N[C@H](C)C(=O)N[C@H](CC(N)=O)C(=O)Nc1ccc(COC(=O)OC(C(=O)OC2C[C@@]3(O)[C@@H](OC(=O)c4ccccc4)[C@H]4[C@](C)(C(=O)[C@H](O)C(=C2C)C3(C)C)[C@@H](O)CC2OC[C@]24OC(C)=O)[C@@H](NC(=O)OC(C)(C)C)c2ccccc2)cc1 (stereo partly shown) and give its recorded Number of dead animal. 2

====

# Tested on: BALB/C mice
# protocol_notes: Maximum tolerated dose (MTD) / acute toxicity by single intravenous injection
# particulars: single intravenous injection, 200 mg/kg, 10 BALB/C mice per group
measurement_name: Mortality rate (%)
Reply with just the number (in %).

COCCOCC(=O)NCCCC[C@H](NC(=O)COCCOC)C(=O)N[C@H](C)C(=O)N[C@H](C)C(=O)N[C@H](CC(N)=O)C(=O)Nc1ccc(COC(=O)OC(C(=O)OC2C[C@@]3(O)[C@@H](OC(=O)c4ccccc4)[C@H]4[C@](C)(C(=O)[C@H](OC(C)=O)C(=C2C)C3(C)C)[C@@H](O)CC2OC[C@]24OC(C)=O)[C@@H](NC(=O)c2ccccc2)c2ccccc2)cc1 (some centres unmarked)
0
COCCOCC(=O)N[C@H](C)C(=O)N[C@H](C)C(=O)N[C@H](CC(N)=O)C(=O)Nc1ccc(COC(=O)OC(C(=O)OC2C[C@@]3(O)[C@@H](OC(=O)c4ccccc4)[C@H]4[C@](C)(C(=O)[C@H](O)C(=C2C)C3(C)C)[C@@H](O)CC2OC[C@]24OC(C)=O)[C@@H](NC(=O)OC(C)(C)C)c2ccccc2)cc1 (some centres unmarked) [Compound D1]
10
COCCOCCOCCOCCOCCOCC(=O)NCCCC[C@H](NC(=O)COCCOCCOCCOCCOCCOC)C(=O)N[C@H](C)C(=O)N[C@H](C)C(=O)N[C@H](CC(N)=O)C(=O)Nc1ccc(COC(=O)OC(C(=O)OC2C[C@@]3(O)[C@@H](OC(=O)c4ccccc4)[C@H]4[C@](C)(C(=O)[C@H](OC(C)=O)C(=C2C)C3(C)C)[C@@H](O)CC2OC[C@]24OC(C)=O)[C@@H](NC(=O)c2ccccc2)c2ccccc2)cc1 (some centres unmarked)
0

Retrieve Mortality rate (%) on BALB/C mice; query COCCOCCOCCOCCOCCOCCOCCOCCOCCOCCOCCOCC(=O)NCCCC[C@H](NC(=O)COCCOCCOCCOCCOCCOCCOCCOCCOCCOCCOCCOC)C(=O)N[C@H](C)C(=O)N[C@H](C)C(=O)N[C@H](CC(N)=O)C(=O)Nc1ccc(COC(=O)OC(C(=O)OC2C[C@@]3(O)[C@@H](OC(=O)c4ccccc4)[C@H]4[C@](C)(C(=O)[C@H](OC(C)=O)C(=C2C)C3(C)C)[C@@H](O)CC2OC[C@]24OC(C)=O)[C@@H](NC(=O)c2ccccc2)c2ccccc2)cc1 (some centres unmarked) 0

Retrieve Mortality rate (%) on BALB/C mice; query COCCOCC(=O)NCCCC[C@H](NC(=O)COCCOC)C(=O)N[C@H](C)C(=O)N[C@H](C)C(=O)N[C@H](CC(N)=O)C(=O)Nc1ccc(COC(=O)OC(C(=O)OC2C[C@@]3(O)[C@@H](OC(=O)c4ccccc4)[C@H]4[C@](C)(C(=O)[C@H](O)C(=C2C)C3(C)C)[C@@H](O)CC2OC[C@]24OC(C)=O)[C@@H](NC(=O)OC(C)(C)C)c2ccccc2)cc1 (some centres unmarked) 20
